src = PubChem BioAssay (NCATS)

Assay: qHTS of pediatric cancer cell lines to identify multiple opportunities for drug repurposing: Primary screen for RD cells (AID 1347104); note: nearly all actives have a fitted effect of over 55% in size
Settings: RD rhabdomyosarcoma viability, CellTiter-Glo luminescence, 48 h; series mostly up to 46 µM
Inconclusive results are not listed. The source made the active and inactive calls. Calls come from the whole dose curve; as a rule, active = well fitted cell-killing curve with a large enough effect; inconclusive = small, poorly fitted or top-dose-only effect; inactive = flat fitted curve, though single readings scatter.
Outcome codes: true (active), false (inactive)

>>> df
                                    compound  group
 0  CNC(=O)c1cc(Oc2ccc(NC(=O)Nc3cc(C(C)(C)C)nn3-c3ccc4ncccc4c3)c(F)c2)ccn1   true
 1  COc1cc(-c2nn(C3CCC(N4CCN(C(C)=O)CC4)CC3)c3ncnc(N)c23)ccc1NC(=O)c1cc2ccccc2n1C (configuration not stated)   true
 2  COc1ccc(OC)c(-c2nnc3ccc(-c4ccc(OC)c(O[C@@H]5CCOC5)c4)nn23)c1   true
 3  Cc1[nH]nc2ccc(-c3cncc(OC[C@@H](N)Cc4ccccc4)c3)cc12   true
 4  CN(c1ncccc1CNc1nc(Nc2ccc3c(c2)CC(=O)N3)ncc1C(F)(F)F)S(C)(=O)=O   true
 5  O=C(CCCCCCC(=O)Nc1ccc([C@H]2O[C@@H](CSc3nc(-c4ccccc4)c(-c4ccccc4)o3)C[C@@H](c3ccc(CO)cc3)O2)cc1)NO   true
 6  O=C(O)[C@H](Cc1c[nH]c2ccccc12)N1C(=O)c2ccccc2C1=O  false
 7    CCCCc1nc2cc(C=CC(=O)NO)ccc2n1CCN(CC)CC   true
 8  Nc1nccc(Oc2ccc(NC(=O)c3c[nH]cc(-c4ccc(F)cc4)c3=O)cc2F)c1Cl   true
 9  CN(C)CCCN=c1c2ccccc2n(C)c2[nH]c(=O)n(C)c(=O)c12   true
10  CC=C1NC(=O)[C@H]2CSSCCC=C[C@H](CC(=O)N[C@H](C(C)C)C(=O)N2)OC(=O)[C@H](C(C)C)NC1=O   true
11  CC(NCc1ccc2c(c1)nc(NC(=O)c1ccc(-c3cn[nH]c3)s1)n2CC(C)(C)O)C(C)(C)C (configuration not stated)   true
12  CN1CCN(c2cc(C(=O)Nc3ccc4c(c3)-c3c(c(C(N)=O)nn3-c3ccc(F)cc3)CC4)c(Cl)cn2)CC1   true
13  NCC(=O)Nc1ccc(-n2nc(C(F)(F)F)cc2-c2ccc3c(ccc4ccccc43)c2)cc1   true
14  COc1cc2ncnc(Nc3ccc(F)c(Cl)c3)c2cc1NC(=O)C=CCN1CCCCC1   true
15  CNC(=O)c1c(F)cccc1Nc1nc(Nc2cc3c(cc2OC)CCN3C(=O)CN(C)C)nc2[nH]ccc12   true
16  CC(C)(C)NC(=O)[C@H]1CN(Cc2cccnc2)CCN1C[C@@H](O)C[C@@H](Cc1ccccc1)C(=O)N[C@H]1c2ccccc2C[C@H]1O   true
17  Cn1c(CNc2ccc(C(=N)N)cc2)nc2cc(C(=O)N(CCC(=O)O)c3ccccn3)ccc21  false
18  Cc1ccc(CN2CCNCC2)cc1NC(=O)CNc1ccc(F)c(F)c1  false
19  COc1cc(C(=O)N2CCC(N3CCN(C)CC3)CC2)ccc1Nc1ncc2c(n1)N(C)c1ccccc1C(=O)N2C   true
20  C=C1C(=CC=C2CCC[C@]3(C)[C@@H]([C@H](C)C=C[C@H](C)C(C)C)CC[C@@H]23)C[C@@H](O)C[C@@H]1O   true
21  CNC(=O)c1ccccc1Nc1nc(Nc2ccc(N3CCOCC3)cc2OC)ncc1Cl   true
22  Clc1cccc(-n2nnnc2NCc2ccccc2Oc2ccccn2)c1Cl  false
23  O=C(c1ccc(Nc2nccc(-c3cc4ccccc4s3)n2)cc1)N1CCC(N2CCCC2)CC1   true
24  Nc1nc(Nc2ccc(S(N)(=O)=O)cc2)nn1C(=O)c1c(F)cccc1F   true
25      COc1ccc(C=Cc2cc(OC)c(OC)c(OC)c2)cc1O  false
26  O=C(NC1CCNCC1)c1[nH]ncc1NC(=O)c1c(Cl)cccc1Cl   true
27  COc1cc(Nc2ncc(F)c(Nc3ccc4c(n3)N(COP(=O)(O)O)C(=O)C(C)(C)O4)n2)cc(OC)c1OC   true
28  c1nc2nc(Nc3ccc(N4CCOCC4)cc3)nc(NC3CCCCC3)c2[nH]1   true
29  COc1cccc(Nc2c(C(N)=O)cnc3c(C)cc(S(=O)(=O)c4cccc(C(=O)N(C)C)c4)cc23)c1  false
30  O=C(Nc1nc2cccc(-c3ccc(CN4CCS(=O)(=O)CC4)cc3)n2n1)C1CC1   true
31  Cc1cc(Nc2cc(N3CCN(C)CC3)nc(C=Cc3ccccc3)n2)n[nH]1   true
32  CC(C)[C@H](C(=O)Nc1ccc(C(=O)NO)cc1)c1ccccc1   true
33  CN(C)CC=CC(=O)Nc1cc2c(Nc3ccc(F)c(Cl)c3)ncnc2cc1O[C@H]1CCOC1   true
34  Cc1nc2ccc(CN(C)c3ccc(C(=O)N[C@@H](CCC(=O)O)C(=O)O)s3)cc2c(=O)[nH]1  false
35  CN1c2cc(O)c(N=NC(N)=O)cc2CC1S(=O)(=O)O (configuration not stated)  false
36  C=CC(=O)Nc1cccc(Oc2nc(Nc3ccc(N4CCN(C)CC4)cc3OC)ncc2Cl)c1   true
